Data origin: patent US12226405B2

Tested on: HIF2α-dependent transcription in 786-O-HRE-Luc cells
Experiment: In vitro cellular hypoxia response element (HRE) reporter gene assay (RGA) for HIF2α
Assay type: cell-based, human
Settings: Homo sapiens, 24 hours incubation
Method: Stock solutions of compounds were prepared at a concentration of 10 mM in DMSO and stored at 4° C. […] The ability of compounds to inhibit HIF2α- and HIF1α-dependent transcription was assessed in 786-O-HRE-Luc and RCC4-HRE-Luc cells, respectively. The putative unselective inhibition of firefly luciferase activity or expression was assessed in 786-O-UB6-Luc and RCC4-UB6-Luc cells, respectively. […]
// reported pIC50 for each item listed
Please note pIC50 is a logarithmic value: minus log10 of concentration in mol/L. Answer with that number alone.

{"COMPOUND": "[2H]C1([2H])CC[C@@]2(CN3C=C(C#N)C=C(OC(F)F)C3=N2)c2cccc(F)c21 [Example 27]", "pIC50": 6.73}

GET /value?item= Fc1cccc2c1COC[C@@]21CN2C=C(C(F)(F)F)C=C(OC(F)F)C2=N1 [Example 63] &field=pIC50 returns 6.33

The measured pIC50 associated with FC(F)OC1=CC(C(F)(F)F)=CN2C[C@@]3(N=C12)c1ccc(Br)cc1OC[C@@H]3F [Example 59] reads 7.14

Memo: Fc1cccc2c1CCC[C@@]21CN2C=C(C(F)(F)F)C=C(OC(F)F)C2=N1 [Example 28] , reported pIC50: 6.77
